Recorded IC50 values for a group of molecules are listed next.
# protocol: Inhibition of TNF-alpha-FL-Gluc secretion in doxycyclin-induced human Flp-In-T-REx-293 cells measured by Gaussia luciferase reporter gene method
# Type: functional, cell-based
reported property: IC50

[[record]]
molecule = "CC(C)(C)c1csc(NC(=O)c2cc(Br)c(Br)s2)n1"
measured_result = "26 µM"

[[record]]
molecule = "Cc1cc(C(=O)Nc2nc(C(C)(C)C)cs2)cn1Cc1ccccc1"
measured_result = "> 25 µM"

[[record]]
molecule = "CC(C)(C)c1nc(NC(=O)c2cc3c(s2)CCCC3)sc1C#N"
measured_result = "> 80 µM"

[[record]]
molecule = "CC(C)(C)c1csc(NC(=O)c2cc3ccc(Br)cc3s2)n1"
measured_result = "> 80 µM"

[[record]]
molecule = "CC(C)(C)c1csc(NC(=O)Cc2cn(Cc3ncco3)c3ccc(Cl)cc23)n1"
measured_result = "> 25 µM"

[[record]]
molecule = "CC(C)(C)c1csc(NC(=O)Cc2cn(Cc3ccon3)c3ccc(Cl)cc23)n1"
measured_result = "> 25 µM"

[[record]]
molecule = "CC(C(=O)Nc1nc(C(C)(C)C)cs1)c1cn(Cc2ccccc2)c2ccc(Cl)cc12 (stereo not given)"
measured_result = "> 25 µM"

[[record]]
molecule = "Cc1c(CC(=O)Nc2nc(C(C)(C)C)cs2)c2ccccc2n1Cc1ccccc1Cl"
measured_result = "> 21.3 µM"

[[record]]
molecule = "C[C@@H](c1ccccc1Cl)n1cc(CC(=O)Nc2nc(C(C)(C)C)cs2)c2cc(Cl)ccc21"
measured_result = "> 25 µM"

[[record]]
molecule = "CCC(C)(C)c1csc(NC(=O)Cc2cn(Cc3ccccc3)c3ccc(Cl)cc23)n1"
measured_result = "9.8 µM"


----------
# protocol: Inhibition of TNF-alpha-FL-Gluc secretion in doxycyclin-induced human Flp-In-T-REx-293 cells measured by Gaussia luciferase reporter gene method
# Assay type: functional, cell-based
pIC50: −log10 of the molar value.
reported property: pIC50

[[record]]
compound = "CC(C)(C)c1csc(NC(=O)c2ccc(Cl)s2)n1"
measured_result = 5.10

[[record]]
compound = "C[C@H](c1ccccc1Cl)n1cc(CC(=O)Nc2nc(C(C)(C)C)cs2)c2cc(Cl)ccc21"
measured_result = "< 4.60"

[[record]]
compound = "CC(C)(C)c1csc(NC(=O)Cc2cn(Cc3ccncc3)c3ccc(Cl)cc23)n1"
measured_result = 4.96

[[record]]
compound = "CC(C)(C)c1csc(NC(=O)Cc2cn(Cc3c(F)cccc3Cl)c3ccc(Cl)cc23)n1"
measured_result = "< 4.60"

[[record]]
compound = "CC(C)(C)c1csc(NC(=O)Cc2csc3ccc(Cl)cc23)n1"
measured_result = "< 4.60"

[[record]]
compound = "CC(=O)N1CCc2sc(C(=O)Nc3nc(C(C)(C)C)cs3)cc2C1"
measured_result = "< 4.30"

[[record]]
compound = "CC(C)(C)c1csc(NC(=O)Cc2cn(Cc3ccccc3)c3ccc(Cl)cc23)n1"
measured_result = 4.88

[[record]]
compound = "CCC1CCc2sc(C(=O)Nc3nc(C(C)(C)C)cs3)cc2C1 (stereo not given)"
measured_result = "< 4.10"

[[record]]
compound = "CCC(C)(C)c1csc(NC(=O)Cc2cn(Cc3ccccc3Cl)c3ccc(Cl)cc23)n1"
measured_result = "< 4.62"

[[record]]
compound = "CC(c1ccccc1Cl)n1cc(CC(=O)Nc2nc(C(C)(C)C)cs2)c2cc(Cl)ccc21 (stereo not given)"
measured_result = "< 4.60"

